# run description: NCI Yeast Anticancer Drug Screen. Data for the rad14 strain (AID 159);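 also: 0% = growth of vehicle-treated control cultures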
# test conditions: S. cerevisiae rad14 strain growth inhibition; at 100.0 µM; stronger effect = higher value
Compounds without any hit were thinned out: in the full panel of roughly 79,000, 15% have a hit.
value type: growth inhibition (%)
Numbers only, in %.

O=c1c2ccccc2ncn1COCc1ccccc1: 5
CC(C)[N+]([O-])(CCCNc1c2ccccc2nc2cccc([N+](=O)[O-])c12)C(C)C: 99
COC1=CC(=O)C(C2(OC(C)C)OC(=O)C(Cl)=C2Cl)=CC1=O (configuration not stated): 99
O=C1Nc2ccc(Cl)c(I)c2C1=O: 84
CCCCCCCCCC/C=C\C(=O)O: 98

Look up growth inhibition for the entries below, preserving their order.
1. C#CCCCc1ccccc1
2. COc1cc(C2SCC(=O)N2c2ccc(-c3ccc(-n4c(-c5ccccc5)nc5ccccc5c4=O)cc3)cc2)cc(OC)c1OC (configuration not stated)
3. COc1ccc(O)c(/C=N\Nc2ccccc2)c1

**A:**
94
4
94

Look up growth inhibition for the entries below, preserving their order.
1. Cc1ccc(-n2cc(-c3ccc(Cl)cc3)c(C#N)c2N)cc1
2. c1ccc2c(c1)C(=NCCCN1CCCCCC1)c1cccn1-2

**A:**
1: 5; 2: 98

Look up growth inhibition for the entries below, preserving their order.
1. CCCCCCCCCCCCCCC(C(=O)[O-])[n+]1ccccc1 (configuration not stated)
2. O=C(Nc1ccc(Cl)cc1)OCC#CCCl

**A:**
1. 90
2. 24

Reference source: PubChem BioAssay (NCI)
